assay: Cytotoxicity against human Ec9706 cells after 48 hrs by MTT assay; format: functional, cell-based; conditions: EC9706, 48 h
Assignment: determine reported IC50 for the given compounds.
Give the value, in units of mg/L, as a plain number.

Report measured IC50; entry is COC(OC)C1OC(C)(C)OC1Cc1cnc2cc(C(=O)c3ccccc3)ccc2n1 (stereo unspecified) 80

Report measured IC50; entry is COC(OC)C1OC(C)(C)OC1Cc1cnc2cc(Cl)ccc2n1 (stereo unspecified) 30.5

Report measured IC50; entry is COC(OC)C1OC(C)(C)OC1Cc1cnc2ccc(C(=O)c3ccccc3)cc2n1 (stereo unspecified) 80

Report measured IC50; entry is COC(OC)C1OC(C)(C)OC1Cc1cnc2ccc(Cl)cc2n1 (stereo unspecified) 30.5

Report measured IC50; entry is COC(OC)C1OC(C)(C)OC1Cc1cnc2ccc([N+](=O)[O-])cc2n1 (stereo unspecified) 69.2
